Cited source: ChEMBL document CHEMBL1201862

Test system: MDA-N
method: NCI tumour cell line growth inhibition, 48 h
The source made the active and inactive calls. Rule as the data show it: active = GI50 up to about 1.1 µM and inactive = higher.
Please reply with one of these outcomes: active, inactive

>>> class("CC(C)(C)C(=O)O[C@H]1C=C[C@@H](O)[C@@H]2[C@H]1[C@@H]1C=C[C@H]2C1")
"inactive"

Next:
Ask: Outcome? `O=c1c2cc([N+](=O)[O-])ccc2n2n1Cc1ccccc1C2`
Result: inactive

* * *

Test system: OVCAR-4
method: NCI tumour cell line growth inhibition, 48 h
Activity calls are given as the source filed them. No stated cut-off is given here; in the data, active = GI50 up to about 1.1 µM and inactive = higher.
Below: a set of entries, each annotated with reported GI50.

Consider the reported GI50 for these compounds:
>>> reading("CN(C)c1ccc(C2CC(c3ccc4ccccc4c3O)=NN2)cc1 (stereo not given)")
"94.4 µM (inactive)"
>>> reading("Clc1ccc(CSCCc2ccncc2)cc1Cl")
"23.1 µM (inactive)"
>>> reading("CC/C(Cl)=N\\OC(=O)Nc1ccc(F)c(Cl)c1")
"14.5 µM (inactive)"
>>> reading("Cc1ccc(C(=O)O/N=C2/CCCCC2CN(C)C)cc1 (stereo not given)")
"> 100 µM (inactive)"
>>> reading("O=[N+]([O-])C(=C(Nc1ccccc1)Nc1ccccc1)/C(Cl)=C(\\Cl)Br")
"11.9 µM (inactive)"

Ask: GET /values?readout=GI50&item= `CCOP(=O)(OCC)C(C)(C)N(C)/C(F)=N/C(F)(F)F`
Result: > 100 µM (inactive)
